assaySummary: pKa value was determined
Assay type: physicochemical
measurementName: pKa

Please review the entries below; each comes with its answer.
CO[C@H]1C(=O)N2C(C(=O)C(C)(C)C)=C(CSc3nnnn3C)C(Sc3nnnn3C)S(=O)(=O)[C@H]12 (stereo partly drawn) :: 6
CO[C@H]1C(=O)N2C(C(=O)C(C)(C)C)=C(C)C(Sc3nnc(C)s3)S(=O)(=O)[C@H]12 (stereo partly drawn) :: 7.5
CO[C@H]1C(=O)N2C(C(=O)c3ccccc3)=C(CSc3nnnn3C)CS(=O)(=O)[C@H]12 :: 8.4
CO[C@H]1C(=O)N2C(C(=O)C(C)(C)C)=C(C)C(Sc3nnnn3C)S(=O)(=O)[C@H]12 (stereo partly drawn) :: 7.9
CO[C@H]1C(=O)N2C(C(=O)C(C)(C)C)=C(CSc3nnc(C)s3)CS(=O)(=O)[C@H]12 :: 11.9
CO[C@H]1C(=O)N2C(C(=O)c3ccccc3)=C(C)CS(=O)(=O)[C@H]12 :: 9.6

I. CO[C@H]1C(=O)N2C(C(=O)C(C)(C)C)=C(CSc3nnc(C)s3)C(Sc3nnc(C)s3)S(=O)(=O)[C@H]12 (stereo partly drawn)
II. CO[C@H]1C(=O)N2C(C(=O)c3ccccc3)=C(CSc3nnnn3C)C(Sc3nnnn3C)S(=O)(=O)[C@H]12 (stereo partly drawn)
Please indicate which entry, I or II , has the lower recorded pKa value. Please reply using the label of the selected record.
II
(II: 3.5, I: 5.8)

----------
assaySummary: pKa value was determined
Assay type: physicochemical
measurementName: pKa

CO[C@H]1C(=O)N2C(C(=O)C(C)(C)C)=C(C)C(Sc3nc(=O)c(=O)[nH]n3C)S(=O)(=O)[C@H]12 (some centres undefined) :: 8.9

1. CO[C@H]1C(=O)N2C(C(=O)c3ccccc3)=C(C)C(Sc3nc(=O)c(=O)[nH]n3C)S(=O)(=O)[C@H]12 (some centres undefined)
2. CO[C@H]1C(=O)N2C(C(=O)C(C)(C)C)=C(CSc3nnnn3C)CS(=O)(=O)[C@H]12
Field: entry with larger pKa (options 1 / 2 ). Please reply using the label of the selected record.
2
(2: 11.6, 1: 5.7)

----------
testedOn: Neutrophil elastase (Homo sapiens) (UniProt P08246)
Sequence (P08246 whole entry): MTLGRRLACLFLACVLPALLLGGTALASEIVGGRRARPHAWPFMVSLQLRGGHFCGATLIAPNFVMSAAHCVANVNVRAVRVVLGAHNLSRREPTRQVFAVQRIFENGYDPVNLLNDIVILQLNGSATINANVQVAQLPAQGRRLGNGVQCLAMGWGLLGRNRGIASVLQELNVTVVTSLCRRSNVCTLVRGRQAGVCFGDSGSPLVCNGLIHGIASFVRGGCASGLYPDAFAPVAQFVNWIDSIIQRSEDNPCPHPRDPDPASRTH
assaySummary: Inhibition of human leukocyte elastase II (HLE-II) as second order rate constant
measurementName: k on (M⁻¹ s⁻¹)

Please review the entries below; each comes with its answer.
CO[C@H]1C(=O)N2C(C(=O)C(C)(C)C)=C(CSc3nnc(C)s3)C(Sc3nnc(C)s3)S(=O)(=O)[C@H]12 (some centres not stated) :: 21000
CO[C@H]1C(=O)N2C(C(=O)C(C)(C)C)=C(C)C(Sc3nnc(C)s3)S(=O)(=O)[C@H]12 (some centres not stated) :: 42000

1. CO[C@H]1C(=O)N2C(C(=O)C(C)(C)C)=C(CSc3nnc(C)s3)CS(=O)(=O)[C@H]12
2. CO[C@H]1C(=O)N2C(C(=O)C(C)(C)C)=C(C)C(Sc3nc(=O)c(=O)[nH]n3C)S(=O)(=O)[C@H]12 (some centres not stated)
3. CO[C@H]1C(=O)N2C(C(=O)c3ccccc3)=C(C)C(Sc3nnnn3C)S(=O)(=O)[C@H]12 (some centres not stated)
4. CO[C@H]1C(=O)N2C(C(=O)C(C)(C)C)=C(C)C(Sc3nnnn3C)S(=O)(=O)[C@H]12 (some centres not stated)
5. CO[C@H]1C(=O)N2C(C(=O)c3ccccc3)=C(C)C(Sc3nc(=O)c(=O)[nH]n3C)S(=O)(=O)[C@H]12 (some centres not stated)
// ascending sort on recorded k on Answer by writing out the labels in the requested order.
3, 5, 1, 2, 4

----------
assaySummary: Chemical half-life was evaluated at 37 degree C expressed as stability towards hydrolysis
Type: physicochemical
measurementName: half-life (h)

CO[C@H]1C(=O)N2C(C(=O)C(C)(C)C)=C(CSc3nnnn3C)CS(=O)(=O)[C@H]12 :: 24

A. CO[C@H]1C(=O)N2C(C(=O)C(C)(C)C)=C(C)C(Sc3nnc(C)s3)S(=O)(=O)[C@H]12 (stereo partly drawn)
B. CO[C@H]1C(=O)N2C(C(=O)C(C)(C)C)=C(C)C(Sc3nc(=O)c(=O)[nH]n3C)S(=O)(=O)[C@H]12 (stereo partly drawn)
C. CO[C@H]1C(=O)N2C(C(=O)C(C)(C)C)=C(CSc3nnc(C)s3)C(Sc3nnc(C)s3)S(=O)(=O)[C@H]12 (stereo partly drawn)
D. CO[C@H]1C(=O)N2C(C(=O)c3ccccc3)=C(CSc3nnnn3C)CS(=O)(=O)[C@H]12
// ascending sort on recorded half-life Answer by writing out the labels in the requested order.
D, B, A, C
(D: 8.6 h, B: 16.3 h, A: 26 h, C: 46 h)

1. CO[C@H]1C(=O)N2C(C(=O)c3ccccc3)=C(C)CS(=O)(=O)[C@H]12
2. CO[C@H]1C(=O)N2C(C(=O)c3ccccc3)=C(C)C(Sc3nnnn3C)S(=O)(=O)[C@H]12 (stereo partly drawn)
Please indicate which entry, 1 or 2 , has the lower recorded half-life value. Please reply using the label of the selected record.
1

----------
assaySummary: Chemical half-life was evaluated at 37 degree C expressed as stability towards hydrolysis
Format: physicochemical
measurementName: half-life (h)

CO[C@H]1C(=O)N2C(C(=O)c3ccccc3)=C(CSc3nnnn3C)C(Sc3nnnn3C)S(=O)(=O)[C@H]12 (stereo partly specified) :: 850

I. CO[C@H]1C(=O)N2C(C(=O)C(C)(C)C)=C(CSc3nnc(C)s3)CS(=O)(=O)[C@H]12
II. CO[C@H]1C(=O)N2C(C(=O)C(C)(C)C)=C(CSc3nnnn3C)C(Sc3nnnn3C)S(=O)(=O)[C@H]12 (stereo partly specified)
Field: entry with larger half-life (options I / II ). Please reply using the label of the selected record.
I
(I: 37 h, II: 24 h)

----------
assaySummary: Chemical half-life was evaluated at 37 degree C expressed as stability towards hydrolysis
Type: physicochemical
measurementName: half-life (h)

I. CO[C@H]1C(=O)N2C(C(=O)C(C)(C)C)=C(C)C(Sc3nnnn3C)S(=O)(=O)[C@H]12 (stereo partly drawn)
II. CO[C@H]1C(=O)N2C(C(=O)C(C)(C)C)=C(C)CS(=O)(=O)[C@H]12
III. CO[C@H]1C(=O)N2C(C(=O)c3ccccc3)=C(C)C(Sc3nc(=O)c(=O)[nH]n3C)S(=O)(=O)[C@H]12 (stereo partly drawn)
Sort (3 compounds) by half-life: min first. Answer by writing out the labels in the requested order.
I, III, II
(I: 14.8 h, III: 86 h, II: 130 h)

Just for reference, ChEMBL document CHEMBL1151566 is where these values come from.
